assay: TLR3 IRF3 reporter activation blockers – cell-based, poly I:C stimulus, luciferase, 10K MLSCN set, primary screen (AID 602277); settings: HEK293-TLR3 RL24 IRF3 luciferase reporter, at 10 µM, stronger effect = higher value
Quick rule for you: inhibition at 10% or higher means Met, lower means Not met.

INSERT INTO results (molecule, label) VALUES
  ('c1ccc(OCc2nc(-c3ccccc3)no2)cc1', 'Not met'),
  ('COc1ccc(C2C(C(=O)N3CCC(C)CC3)c3ccccc3C(=O)N2C)cc1 (centres undefined)', 'Met'),
  ('O=C(O)CC1NC(=O)N(c2ccccc2)C1=O (centres undefined)', 'Met'),
  ('CCOc1ccc(NC(=O)CSc2nc3cccnc3n2CC)cc1', 'Met'),
  ('C=C(C)COc1ccc(-c2n[nH]c(C)c2-c2ccccc2)c(O)c1', 'Met'),
  ('O=C(NCN1CCCCC1)c1cnccn1', 'Met'),
  ('CCc1nnc(NC(=O)C2CC(=O)N(Cc3ccco3)C2)s1 (centres undefined)', 'Met'),
  ('CCOc1ccc(-c2cn(S(=O)(=O)c3cccc4nsnc34)nc2N)cc1', 'Met'),
  ('Cc1cccc(NC(=O)CSc2nnc(-c3cc(C)n(-c4ccccc4)c3C)o2)c1C', 'Met'),
  ('COc1ccc(CNCC(=O)Nc2cc(C)nn2-c2nc(C)cc(C)n2)cc1OC', 'Met'),
  ('CCN(CC)CCCn1c(=S)[nH]c2cc(Cl)ccc2c1=O', 'Met'),
  ('CSc1nnc(-c2ccc(NC(=O)CCc3ccccc3)cc2)n1C', 'Met'),
  ('O=C(Cn1ncc2c(=O)oc3ccccc3c21)NCCCN1CCCC1=O', 'Met'),
  ('c1ccc2c(c1)nc(NC1CCCCC1)c1nncn12', 'Met'),
  ('Cc1cccc(NC(=O)c2cc(NC(=O)c3ccco3)ccc2N2CCCCC2)c1', 'Not met'),
  ('Nc1cc(N)cc(-c2nc3ccccc3o2)c1', 'Not met'),
  ('Cc1ccc(-c2cn3nc(C)c(C)nc3n2)cc1', 'Not met'),
  ('O=C(CCN1C(=O)C2C3C=CC(C3)C2C1=O)NCCc1ccccc1Cl (centres undefined)', 'Not met'),
  ('CN1CCc2c(sc3c2c(=O)n(-c2ccccc2)c2nnc(SCc4ccc(F)cc4)n32)C1', 'Not met'),
  ('CC(C)c1nccn1S(=O)(=O)c1cc(Cl)ccc1Cl', 'Met'),
  ('Cc1ccc(C)c(NC(=O)CSc2nnc(-c3ccccc3)o2)c1', 'Met'),
  ('Cc1ccc(Cl)cc1N1CCN(C(=O)CN2C(=O)c3cccc4cccc2c34)CC1', 'Not met'),
  ('CCc1ccc(Nc2cc(=O)n(C3CCCCC3)c(=O)[nH]2)cc1', 'Not met'),
  ('CC1CC(C)CN(CCCNC(=O)c2ccc3c(c2)NC(=O)C(N2CCCCC2)S3)C1 (centres undefined)', 'Not met');
